Quick reference for Average EC50, pSTAT5 assay in pan T cells, MMP2 cleaved molecule among some binders
SYSTEM TESTED: T1, IL-2 receptor βγ complex on pan T cells (human, UniProt P14784 27-551; P31785 23-369)
T1 sequence (looked up) 1: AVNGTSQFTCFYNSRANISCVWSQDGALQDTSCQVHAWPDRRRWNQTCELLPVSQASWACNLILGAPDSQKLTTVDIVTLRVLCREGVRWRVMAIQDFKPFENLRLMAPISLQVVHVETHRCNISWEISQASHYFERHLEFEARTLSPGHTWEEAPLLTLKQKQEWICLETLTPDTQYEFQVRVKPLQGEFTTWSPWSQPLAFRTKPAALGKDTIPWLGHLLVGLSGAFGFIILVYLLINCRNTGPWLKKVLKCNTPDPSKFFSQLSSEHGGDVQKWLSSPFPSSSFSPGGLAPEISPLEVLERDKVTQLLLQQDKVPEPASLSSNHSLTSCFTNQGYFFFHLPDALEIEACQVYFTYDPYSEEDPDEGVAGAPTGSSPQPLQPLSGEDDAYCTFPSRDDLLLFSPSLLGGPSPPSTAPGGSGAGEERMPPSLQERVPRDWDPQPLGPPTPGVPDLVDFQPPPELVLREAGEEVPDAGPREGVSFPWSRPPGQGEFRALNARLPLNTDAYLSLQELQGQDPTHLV
T1 sequence (looked up) 2: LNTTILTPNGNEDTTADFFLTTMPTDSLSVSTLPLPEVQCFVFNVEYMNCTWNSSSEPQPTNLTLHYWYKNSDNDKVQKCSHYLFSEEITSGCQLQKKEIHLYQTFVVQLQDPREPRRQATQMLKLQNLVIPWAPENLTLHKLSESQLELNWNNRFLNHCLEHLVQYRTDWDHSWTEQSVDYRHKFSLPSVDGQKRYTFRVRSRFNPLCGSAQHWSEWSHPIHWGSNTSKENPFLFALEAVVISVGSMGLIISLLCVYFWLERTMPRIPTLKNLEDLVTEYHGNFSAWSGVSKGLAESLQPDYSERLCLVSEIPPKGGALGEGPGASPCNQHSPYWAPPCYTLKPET
PROTOCOL TEXT: cell-based or functional assay
[ ]: non-standard residue; d: D form. Ygp = O-(8x polyethylene glycol-amino)-tyrosine; Yn3 = O-(9x polyethylene glycol-azido)-tyrosine; hSer = N[C@@H](CCO)C(=O)O; Nle = CCCC[C@H](N)C(=O)O
The reply should contain only the number, in nM.

binder="CMP-147, MMP2 cleaved (ligand, not fully specified (residue 13); ends and bridges not checked; also: MMP2-cut remnant of cleavable moiety on Lys13 side chain, not given here) APTSSSTKKTQLKLEHLLLDLQ[Nle]ILNGINNYKNPKLTR[Nle]L[hSer][Yn3]KF[Ygp][Nle]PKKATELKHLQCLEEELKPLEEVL[hSer]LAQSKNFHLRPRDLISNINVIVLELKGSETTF[hSer]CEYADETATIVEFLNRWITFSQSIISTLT" result_number=1.29

Continue with the next binder.
Prompt: Dear colleague, please send me the reported Average EC50, pSTAT5 assay in pan T cells, MMP2 cleaved molecule for CMP-149, MMP2 cleaved (ligand, not fully specified (residue 19); ends and bridges not checked; also: MMP2-cut remnant of cleavable moiety on Lys19 side chain, not given here) APTSSSTKKTQLQLEHLLKDLQ[Nle]ILNGINNYKNPKLTR[Nle]L[hSer][Yn3]KF[Ygp][Nle]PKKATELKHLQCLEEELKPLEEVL[hSer]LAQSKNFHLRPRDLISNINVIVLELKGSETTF[hSer]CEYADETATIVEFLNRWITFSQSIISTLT when you can.
Response: 9.56

Source of measurements: patent US20240417436A1
